target: Tubulin beta chain (Bos taurus) (UniProt Q6B856); experiment: Percentage inhibition of colchicine binding to tubulin.; design: concentration or dose not given beside the values; conditions: concentration not given here
Sequence (Q6B856 whole entry): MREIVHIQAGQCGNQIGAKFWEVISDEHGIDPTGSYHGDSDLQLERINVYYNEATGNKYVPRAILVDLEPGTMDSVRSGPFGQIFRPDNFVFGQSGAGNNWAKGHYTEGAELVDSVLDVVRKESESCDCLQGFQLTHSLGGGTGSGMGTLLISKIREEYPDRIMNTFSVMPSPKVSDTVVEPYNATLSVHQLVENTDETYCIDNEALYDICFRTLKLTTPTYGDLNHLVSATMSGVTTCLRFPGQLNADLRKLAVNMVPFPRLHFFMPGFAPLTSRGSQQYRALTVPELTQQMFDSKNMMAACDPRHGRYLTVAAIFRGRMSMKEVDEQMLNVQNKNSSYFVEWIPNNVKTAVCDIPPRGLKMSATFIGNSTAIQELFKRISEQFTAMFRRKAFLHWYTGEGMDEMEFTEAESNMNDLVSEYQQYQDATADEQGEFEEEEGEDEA
Quick rule: inhibition of at least 20% means yes (1), below that means no (0).

- compound: "CC(C)Cc1cc2c(cc1O)CC[C@@H]1[C@@H]2CC[C@]2(C)[C@@H](O)CC[C@@H]12"
  class: "no (0)"
- compound: "CC(C)=Cc1cc2c(cc1O)CC[C@@H]1[C@@H]2CC[C@]2(C)[C@@H](O)CC[C@@H]12"
  class: "yes (1)"
- compound: "Cc1cc2c(cc1O)CC[C@@H]1[C@@H]2CC[C@]2(C)[C@@H](O)CC[C@@H]12"
  class: "yes (1)"

Incoming: Is reported inhibition greater than or equal to 20% here: CCCc1cc2c(cc1O)CC[C@@H]1[C@@H]2CC[C@]2(C)[C@@H](O)CC[C@@H]12
Outgoing: no (0)

Incoming: Is reported inhibition greater than or equal to 20% here: CCCCc1cc2c(cc1O)CC[C@@H]1[C@@H]2CC[C@]2(C)[C@@H](O)CC[C@@H]12
Outgoing: no (0)

Incoming: Is reported inhibition greater than or equal to 20% here: CCC/C=C/c1cc2c(cc1O)CC[C@@H]1[C@@H]2CC[C@]2(C)[C@@H](O)CC[C@@H]12
Outgoing: no (0)

Incoming: Is reported inhibition greater than or equal to 20% here: C/C=C/c1cc2c(cc1O)CC[C@@H]1[C@@H]2CC[C@]2(C)[C@@H](O)CC[C@@H]12 (stereo in doubt; 11a)
Outgoing: yes (1)

Incoming: Is reported inhibition greater than or equal to 20% here: C[C@]12CC[C@@H]3c4cc(I)c(O)cc4CC[C@H]3[C@@H]1CC[C@@H]2O
Outgoing: yes (1)
